B1: FERM and PDZ domain-containing protein 4, residues 75 to 154; numbered along this chain, Q14CM0 (parent)
chain: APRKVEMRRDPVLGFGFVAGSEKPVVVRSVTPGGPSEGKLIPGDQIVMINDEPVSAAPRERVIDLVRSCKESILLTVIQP

Variants of: B1
Experiment: abundance fitness (aPCA) (normalised: wild type 0, dead -1); higher = more abundant; growth selection in yeast, the domain comes from the species named
Conditions: Homo sapiens
We use -0.3 as the dividing line for abundance fitness: on or above the line is Satisfied, below is Not satisfied.

> print(dat)
    variant.annotation  qualitative.label
 1                G16K      Not satisfied
 2                Q79F          Satisfied
 3                R59V          Satisfied
 4                K23W          Satisfied
 5                P42N          Satisfied
 6                K23H          Satisfied
 7                V25K      Not satisfied
 8                P53L          Satisfied
 9                I49F      Not satisfied
10                D44E          Satisfied
11                L75D      Not satisfied
12                G14R      Not satisfied
13                I49H      Not satisfied
14                G14L      Not satisfied
15                V30K      Not satisfied
16                R61G          Satisfied
17                Q45I          Satisfied
18                L40W      Not satisfied
19                P53Y          Satisfied
20                 A1P      Not satisfied
21                L65N      Not satisfied
22                G43T      Not satisfied
23                V66W      Not satisfied
24                P11N          Satisfied
25                I41S          Satisfied
26                L40G      Not satisfied
27                 P2M          Satisfied
28                V47W          Satisfied
29                V27N      Not satisfied
30                 M7C          Satisfied
31                L75V          Satisfied
32                D51E          Satisfied
33                L40H      Not satisfied
34                K23P      Not satisfied
35                A57M          Satisfied
36                R61M          Satisfied
37                G33K          Satisfied
38                V54P      Not satisfied
39                L75K      Not satisfied
40                G34E      Not satisfied
41                E52I          Satisfied
42                 P2I          Satisfied
